- ASSAY: Metabolic stability in mouse liver microsomes assessed as intrinsic clearance
- Format: ADME, Microsome
- CONDITION INFO: read-out: CLH
The following molecules are shown together with reported microsomal CLint values.
READOUT TYPE: microsomal CLint

- CC(C)c1nn(CC(=O)N[C@@H]2CCCNC2)c(=O)c2cc3sc(Cl)cc3n12: 55 µL/min/mg
- O=C(Cn1ncn2c(cc3sccc32)c1=O)Nc1cccnc1: 48 µL/min/mg
- CC(C)c1nn(CC(=O)NC2CCOCC2)c(=O)c2cc3sc(Cl)cc3n12: 129 µL/min/mg
- CC(C)(O)c1nn(CC(=O)Nc2cccnc2)c(=O)c2cc3sccc3n12: 300 µL/min/mg
- CC(C)c1nn(CC(=O)Nc2cccnc2)c(=O)c2cc3sc(Cl)cc3n12: 124 µL/min/mg

* * *

- ASSAY: Oral bioavailability in C57BL/6 mouse measured after 24 hrs by LC-MS/MS analysis
- Type: ADME, organism-based
- CONDITION INFO: in vivo
READOUT TYPE: bioavailability (%)

• CC(C)c1nn(CC(=O)N[C@@H]2CCCN(C)C2)c(=O)c2cc3sc(Cl)cc3n12 = 7.8
• CC(C)c1nn(CC(=O)N[C@@H]2CCCNC2)c(=O)c2cc3sc(Cl)cc3n12 = 27.6
• CN1CCC[C@@H](NC(=O)Cn2nc(C(C)(C)O)n3c(cc4sc(Cl)cc43)c2=O)C1 = 36
• CC(C)c1nn(CC(=O)Nc2cccnc2)c(=O)c2cc3sc(Cl)cc3n12 = 55

* * *

- ASSAY: Metabolic stability in human liver microsomes assessed as intrinsic clearance
- Format: ADME, Microsome
- CONDITION INFO: read-out: CLH
READOUT TYPE: log10 microsomal CLint (log10 of the value in µL/min/mg)

* CCc1nn(CC(=O)N(C)c2ccccc2)c(=O)c2cc3sccc3n12 | 2.99
* CC(C)c1nn(CC(=O)Nc2cccnc2)c(=O)c2cc3sccc3n12 | 2.16
* CCc1nn(CC(=O)Nc2ccccc2)c(=O)c2cc3sccc3n12 | 2.43
* CCc1nn(CC(=O)Nc2ccncn2)c(=O)c2cc3sccc3n12 | 1.84
* CC(C)c1nn(CC(=O)Nc2cccnc2)c(=O)c2cc3sc(F)cc3n12 | 1.90
* CCCc1nn(CC(=O)Nc2cccnc2)c(=O)c2cc3sccc3n12 | 2.00
* CCc1nn(CC(=O)Nc2cccnc2)c(=O)c2cc3sccc3n12 | 1.80
* O=C(Cn1nc(C2CC2)n2c(cc3sccc32)c1=O)Nc1cccnc1 | 1.88
* CC(C)c1nn(CC(=O)Nc2cccnc2)c(=O)c2cc3sc(Cl)cc3n12 | 1.64
* CC(C)c1nn(CC(=O)N[C@@H]2CCCNC2)c(=O)c2cc3sc(Cl)cc3n12 | 1.08

* * *

- ASSAY: Half-life in C57BL/6 mouse at 3 mg/kg, po or 1 mg/kg, iv measured after 24 hrs by LC-MS/MS analysis
- Format: ADME, organism-based
- CONDITION INFO: in vivo
READOUT TYPE: half-life

* CN1CCC[C@@H](NC(=O)Cn2nc(C(C)(C)O)n3c(cc4sc(Cl)cc43)c2=O)C1 | 1 h

* * *

- ASSAY: Half-life in Beagle dog at 1 mg/kg, po or 0.1 mg/kg, iv measured after 24 hrs by LC-MS/MS analysis
- Format: ADME, organism-based, Canis lupus familiaris
- CONDITION INFO: in vivo
READOUT TYPE: half-life (min)

- CN1CCC[C@@H](NC(=O)Cn2nc(C(C)(C)O)n3c(cc4sc(Cl)cc43)c2=O)C1: 342

* * *

- ASSAY: Drug concentration in blood of C57BL/6 mouse model of acute peritonitis at 30 mg/kg, po preadministered with compound for 1 hrs followed by LPS stimulation for 2 hrs and measured 15 mins after ATP addition by HPLC-MS/MS analysis
- Assay type: ADME, organism-based
- CONDITION INFO: whole blood, read-out: Ct
READOUT TYPE: concentration at 3.25 h (nM)

- CN1CCC[C@@H](NC(=O)Cn2nc(C(C)(C)O)n3c(cc4sc(Cl)cc43)c2=O)C1: 1060

* * *

- ASSAY: Protein binding in human plasma
- Assay type: ADME, cell-free
- CONDITION INFO: read-out: PPB (converted)
READOUT TYPE: fraction unbound

• CN1CCC[C@@H](NC(=O)Cn2nc(C(C)(C)O)n3c(cc4sc(Cl)cc43)c2=O)C1 = 0.15

* * *

- ASSAY: Lipophilicity, logD of compound at pH 7.4
- Type: physicochemical
- CONDITION INFO: buffer
READOUT TYPE: logD

- CCCc1nn(CC(=O)Nc2cccnc2)c(=O)c2cc3sccc3n12: 3
- O=C(Cn1nc(C2CC2)n2c(cc3sccc32)c1=O)Nc1cccnc1: 2.7
- CC(C)(O)c1nn(CC(=O)Nc2cccnc2)c(=O)c2cc3sccc3n12: 2.8
- CC(C)c1nn(CC(=O)Nc2cccnc2)c(=O)c2cc3sc(Cl)cc3n12: 4
- O=C(Cn1ncn2c(cc3sccc32)c1=O)Nc1cccnc1: 1.9
- CN1CCC[C@@H](NC(=O)Cn2nc(C(C)(C)O)n3c(cc4sc(Cl)cc43)c2=O)C1: 2.3
- CC(C)c1nn(CC(=O)Nc2cccnc2)c(=O)c2cc3sccc3n12: 3.1
- CC(C)c1nn(CC(=O)NC2CCOCC2)c(=O)c2cc3sc(Cl)cc3n12: 3
- CC(C)c1nn(CC(=O)Nc2cccnc2)c(=O)c2cc3sc(F)cc3n12: 3.4
- CC(C)(O)c1nn(CC(=O)N[C@H]2C[C@@](C)(O)C2)c(=O)c2cc3sc(Cl)cc3n12: 2.8

* * *

- ASSAY: AUC (0 to infinity) in C57BL/6 mouse at 3 mg/kg, po measured after 24 hrs by LC-MS/MS analysis
- Type: ADME, organism-based
- CONDITION INFO: in vivo
The following compounds are shown together with reported AUC(0-inf) values.
READOUT TYPE: AUC(0-inf) (µM·h)

* CC(C)c1nn(CC(=O)N[C@@H]2CCCNC2)c(=O)c2cc3sc(Cl)cc3n12 | 0.691
* CN1CCC[C@@H](NC(=O)Cn2nc(C(C)(C)O)n3c(cc4sc(Cl)cc43)c2=O)C1 | 0.718
* CC(C)c1nn(CC(=O)N[C@@H]2CCCN(C)C2)c(=O)c2cc3sc(Cl)cc3n12 | 0.163
* CC(C)c1nn(CC(=O)Nc2cccnc2)c(=O)c2cc3sc(Cl)cc3n12 | 3.75

* * *

- ASSAY: Drug concentration in brain of C57BL/6 mouse model of acute peritonitis at 50 mg/kg, po preadministered with compound for 1 hrs followed by LPS stimulation for 2 hrs and measured 15 mins after ATP addition by HPLC-MS/MS analysis
- Type: ADME, organism-based
- CONDITION INFO: read-out: Ct
READOUT TYPE: concentration at 3.25 h (nM)

• CN1CCC[C@@H](NC(=O)Cn2nc(C(C)(C)O)n3c(cc4sc(Cl)cc43)c2=O)C1 = 398

* * *

- ASSAY: Thermodynamic solubility of compound at pH 6.8
- Type: physicochemical
- CONDITION INFO: buffer, read-out: Therm_solubility
READOUT TYPE: solubility thermodynamic (µg/mL)

• CN1CCC[C@@H](NC(=O)Cn2nc(C(C)(C)O)n3c(cc4sc(Cl)cc43)c2=O)C1 = 159

* * *

- ASSAY: Drug concentration in blood of C57BL/6 mouse model of acute peritonitis at 10 mg/kg, po preadministered with compound for 1 hrs followed by LPS stimulation for 2 hrs and measured 15 mins after ATP addition by HPLC-MS/MS analysis
- Type: ADME, organism-based
- CONDITION INFO: whole blood, read-out: Ct
READOUT TYPE: concentration at 3.25 h (nM)

- CN1CCC[C@@H](NC(=O)Cn2nc(C(C)(C)O)n3c(cc4sc(Cl)cc43)c2=O)C1: 163

* * *

- ASSAY: Protein binding in mouse plasma
- Format: ADME, cell-free
- CONDITION INFO: read-out: PPB (converted)
READOUT TYPE: fraction unbound

- CN1CCC[C@@H](NC(=O)Cn2nc(C(C)(C)O)n3c(cc4sc(Cl)cc43)c2=O)C1: 0.03

* * *

- ASSAY: Lipophilicity, logD of compound at pH 7.4
- Format: physicochemical
- CONDITION INFO: buffer
The following compounds are shown together with reported logD values.
READOUT TYPE: logD

- CCc1nn(CC(=O)NC2CCCNC2)c(=O)c2cc3sccc3n12 (stereo not given): -0.2
- CCc1nn(CC(=O)Nc2cccnc2)c(=O)c2cc3sccc3n12: 2.6
- CC(C)c1nn(CC(=O)N[C@@H]2CCCN(C)C2)c(=O)c2cc3sc(Cl)cc3n12: 2.4
- CC(C)c1nn(CC(=O)N[C@@H]2CCCN(C)C2)c(=O)c2cc3scnc3n12: 1.1
- CC(C)c1nn(CC(=O)N[C@@H]2CCCNC2)c(=O)c2cc3sc(Cl)cc3n12: 1
